These entries and their values trace back to ChEMBL document CHEMBL4308848.

IC50 values by entry
# Study target: Bromodomain-containing protein 2 (Homo sapiens, UniProt P25440)
# Sequence (P25440 whole entry): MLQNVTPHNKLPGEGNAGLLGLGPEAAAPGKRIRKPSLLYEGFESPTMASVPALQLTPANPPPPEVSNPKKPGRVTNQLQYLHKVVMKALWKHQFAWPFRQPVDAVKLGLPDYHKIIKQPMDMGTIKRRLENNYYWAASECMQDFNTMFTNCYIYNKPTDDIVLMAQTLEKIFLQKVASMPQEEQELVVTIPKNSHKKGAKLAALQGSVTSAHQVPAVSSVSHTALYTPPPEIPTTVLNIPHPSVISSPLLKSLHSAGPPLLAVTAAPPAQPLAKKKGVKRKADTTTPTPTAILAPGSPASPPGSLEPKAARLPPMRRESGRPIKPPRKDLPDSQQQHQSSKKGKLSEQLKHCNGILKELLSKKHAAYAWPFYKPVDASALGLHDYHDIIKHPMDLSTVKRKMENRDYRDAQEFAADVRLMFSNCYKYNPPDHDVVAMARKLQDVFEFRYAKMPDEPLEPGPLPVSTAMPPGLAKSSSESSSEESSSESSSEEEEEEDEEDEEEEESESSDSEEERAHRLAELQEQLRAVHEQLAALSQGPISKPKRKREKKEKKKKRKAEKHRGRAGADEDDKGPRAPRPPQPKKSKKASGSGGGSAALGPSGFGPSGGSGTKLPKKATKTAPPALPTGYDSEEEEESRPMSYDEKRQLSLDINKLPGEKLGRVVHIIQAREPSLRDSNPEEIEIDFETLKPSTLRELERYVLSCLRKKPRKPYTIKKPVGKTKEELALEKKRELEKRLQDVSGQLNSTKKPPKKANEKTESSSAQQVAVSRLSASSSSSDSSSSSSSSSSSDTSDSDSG
# Assay comment: Inhibition of BRD2 N-terminal bromodomain 1 (unknown origin) expressed in Escherichia coli Bl21(DE3) by alpha-screen assay
Measured metric: IC50 (µM)

Item smiles | Output unit | Operator | Endpoint result
Cc1cc(C)cc(Nc2nccc(-c3c(CO)nnn3C3CCNCC3)n2)c1 | µM | > | 250
Cc1cc(C)cc(Nc2nccc(-c3c(-c4ccc(F)cc4)nnn3C3CCNCC3)n2)c1 | µM | = | 43
Cc1cc(C)cc(Nc2nccc(-c3c(C)nnn3C3CCNCC3)n2)c1 | µM | = | 1.8
Cc1cc(C)cc(Nc2nccc(-c3c(-c4ccc(F)cc4)ncn3C3CCNCC3)n2)c1 | µM | = | 29
